These entries and their values trace back to ChEMBL document CHEMBL4152221.

tgt: Tyrosyl-DNA phosphodiesterase 2 (Homo sapiens)
Sequence (O95551 whole entry): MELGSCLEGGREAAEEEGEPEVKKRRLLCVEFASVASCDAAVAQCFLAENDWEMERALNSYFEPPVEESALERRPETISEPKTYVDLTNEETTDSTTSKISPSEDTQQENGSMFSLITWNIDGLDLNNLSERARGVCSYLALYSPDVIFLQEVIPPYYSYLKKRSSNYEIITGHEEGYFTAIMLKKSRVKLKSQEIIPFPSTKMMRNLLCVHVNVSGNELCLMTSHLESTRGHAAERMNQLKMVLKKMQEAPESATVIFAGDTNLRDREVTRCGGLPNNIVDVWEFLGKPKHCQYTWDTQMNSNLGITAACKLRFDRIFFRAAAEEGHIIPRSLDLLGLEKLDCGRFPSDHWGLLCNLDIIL
test.description: Inhibition of recombinant human TDP2 using TY18 (alpha-[32P]-cordycepin-3'-labeled) as substrate after 15 mins by PAGE analysis
readout.kind: IC50

Examples with answers:
molecular.string: CCOC(=O)c1c2c(n(C)c1C)C(=O)c1ncccc1C2=O
tgt: Tyrosyl-DNA phosphodiesterase 2 (Homo sapiens)
IC50: > 111 µM
--
molecular.string: Cc1oc2c(c1C(=O)Nc1ccccc1)C(=O)c1ncccc1C2=O
tgt: Tyrosyl-DNA phosphodiesterase 2 (Homo sapiens)
IC50: > 111 µM

Using the record for Cc1oc2c(c1C(=O)Oc1ccccc1C#N)C(=O)c1ncccc1C2=O , report its IC50. > 111 µM
